System: MOLT-4 leukemia
Test: NCI-60 one-dose screen, 48 h
Settings: 10 µM unless noted
About 83,000 compounds went through this panel and 20% of them were active in at least one assay; those are over-represented in the sample as a whole. The source made the active and inactive calls. Rule for the calls: active = growth percent below 10; inactive = the rest.
Give your call using only these classes: active, inactive

Enquiry: Call for entry CCOC(=O)C(=Cc1ccc(C#N)cc1)C(=O)OCC :
Return: inactive

Enquiry: Test call for this molecule, please: CN1CCN(CCNC(=O)c2cccc(CN3c4cccc5c4C(=Cc4cccnc43)N(C)C5=O)c2)CC1
Return: inactive

Enquiry: Each molecule tested received a call. Report the one for CCCCCCNC(=O)Oc1ccc(/C(=C(/CC)Cc2ccccc2)c2ccc(OCCCN(C)C)cc2)cc1 .
Return: inactive

Enquiry: How was COC1=CC(=O)C(OC)=C(O)C1=O classified in this test?
Return: inactive

Enquiry: Per the records of this test, what outcome belongs to O=C(Nc1ncc(Cc2cccc(C(F)(F)F)c2)s1)c1ccc2c(c1)OCCO2 ?
Return: active

Enquiry: Identify the outcome logged in this assay for the molecule shown: COc1ccc(/C=N/C2=C(C#N)C(c3ccccc3)c3c(ccc4ccccc34)O2)cc1 (stereo unspecified)
Return: inactive

Enquiry: Called result for CCN(CC)CC#CCOC(=O)[C@]1(C)CCC[C@]2(C)c3ccc(C(C)C)cc3CC[C@@H]12
Return: inactive

Enquiry: Could you kindly confirm the outcome this assay logged for Cc1ccc(-c2nc3nc(-c4ccc(Br)cc4)nc(N4CCCNCC4)c3o2)cc1 ?
Return: active

Enquiry: Record lookup: outcome of this test for Cc1nonc1-c1ccc2c(c1)OCO2 ?
Return: inactive

Enquiry: Short answer needed: outcome of this test for O=C1Nc2ccccc2/C1=C/c1cccn1CCCCCn1c2ccccc2c(=O)c2ccccc21 ?
Return: inactive

Enquiry: Please share the test call associated with COc1ccc(-c2csc(NC(=O)CN3CCN(CCO)CC3)n2)cc1NS(=O)(=O)c1cccc2c(N(C)C)cccc12 .
Return: inactive

Enquiry: Answer briefly: the call reported for Cc1ccccc1SSc1ccccc1C in this assay.
Return: inactive

Enquiry: Which outcome did this test record for the molecule CN1Cn2c(ccc2C(F)(F)F)C(=O)CS1(=O)=O ?
Return: inactive

Enquiry: Outcome? Cn1c(=O)c2c(nc(Nc3cc(=O)[nH]c(=O)[nH]3)n2Cc2ccccc2)n(C)c1=O
Return: inactive

Enquiry: So what was the verdict on CCCCCCCCN(CCCCCCCC)CC(O)c1cc(Cl)ccc1OC (stereo unspecified) in this test?
Return: inactive

Enquiry: I would be grateful if you could indicate the recorded call for N=c1ccccn1CCO .
Return: inactive

Enquiry: Please share the test call associated with C[C@@H]1CC[C@@H]2[C@@H]1[C@H](OC(=O)/C=C/c1ccccc1)[C@]1(c3ccccc3)C[C@@H](NC(=O)CO)[C@@]2(C)O1 .
Return: inactive

Enquiry: Please share the test call associated with CN1C(=O)N(C)C2(c3ccccc3)N(CC(=O)Nc3ccccc3O)C(=O)NC12c1ccccc1 (stereo unspecified) .
Return: inactive

Enquiry: Per the records of this test, what outcome belongs to Clc1nccc2c(-c3csc(-c4c[nH]c5ccc(Br)cc45)n3)c[nH]c12 ?
Return: inactive

Enquiry: Each molecule tested received a call. Report the one for C#CCn1cnc2cnc(Nc3cccc(NC(=O)CCl)c3)nc21 .
Return: active

Enquiry: Tell me the assay call for CCOC(=O)n1cc(-c2nonc2-c2cn(C)c3ccc(OC)cc23)c2cc(F)ccc21 please.
Return: inactive

* * *

System: 786-0 renal
Assay: NCI-60 one-dose screen, 48 h
Details: 10 µM unless noted
About 83,000 compounds went through this panel and 20% of them were active in at least one assay; those are over-represented in the sample as a whole. Activity calls are given as the source filed them. Rule for the calls: active = growth percent below 10; inactive = the rest.
Output constraint: value belongs to YES = active, NO = inactive

Enquiry: What did the test return for Nc1nc(N)c2c(n1)NC(c1ccc(Cl)cc1)CC(c1cccc(Nc3ccncc3)c1)=N2 (configuration not stated) ?
Return: NO

Enquiry: Call for entry Cn1cc(-c2csc(-c3c[nH]c4ccc(F)cc34)n2)c2cnccc21 :
Return: YES

Enquiry: Check the results log: what was the call for [2H]C([2H])([2H])Oc1cccc(/C=C/C(=O)/C=C(/C=C/c2cccc(OC([2H])([2H])[2H])c2OC([2H])([2H])[2H])OB(F)F)c1OC([2H])([2H])[2H] ?
Return: NO

Enquiry: Hi, sorry to bother you, what did the test record for CCCCCCCCCCCCC[C@H](O)C[C@H](O)[C@H](C)N ?
Return: NO

Enquiry: Look up the recorded call for CCCCC(NC(=O)CN1C(=O)/C(=C/C(C)=C/c2ccccc2)SC1=S)C(=O)O (configuration not stated) in this test.
Return: NO

Enquiry: Test call for this compound, please: COc1cccc(NC(=O)c2sc3nc(C)c(C(O)c4ccccc4)cc3c2N)c1 (configuration not stated)
Return: NO

Enquiry: Can you look up the reported call for CCOC(=O)c1cnn(-c2ccc(S(N)(=O)=O)cc2)c1N for me?
Return: NO

Enquiry: Which outcome did this test record for the compound COc1cc(Cl)cc(-c2nn(C(=O)NS(=O)(=O)c3ccc(Cl)cc3)cc2-c2ccncc2)c1 ?
Return: NO

Enquiry: Dear all, I need the recorded test outcome for Cc1cccc(-c2nnc(SCC(=O)Nc3ncc(Cc4ccccc4)s3)n2N2C(=O)CSC2=S)c1 , thank you.
Return: NO

Enquiry: What did the test return for C=C1CCC2C3(C)COC(c4ccc(NC(C)=O)cc4)OC3CCC2(C)C1C/C=C1/C(=O)OCC1O (configuration not stated) ?
Return: NO

Enquiry: Hey, what did the test say about NC(N)=NC(N)=NCCCc1ccco1 ?
Return: NO

Enquiry: GET /call?item= S=c1nc(CS)[nH]c2ccccc12 returns the recorded outcome of this test.
Return: NO

Enquiry: Dear all, I need the recorded test outcome for COc1ccc(-c2ccc(-c3ccc(C(=N)N)cn3)o2)cc1Cl , thank you.
Return: YES

Enquiry: Tell me the assay call for COc1c(NC=O)c2c(c([N+](=O)[O-])c1OC)C(=O)OC2 please.
Return: NO

Enquiry: Short answer needed: outcome of this test for Cc1cc(N2CCN(CC(=O)Nc3ccc4c(ccn4Cc4ccccc4)c3)CC2)nc(N2CCCCCC2)n1 ?
Return: NO

Enquiry: Test call for this compound, please: CC1=C2[C@@H](CC1)[C@]1(C)O[C@@](C(C)C)(C[C@H]1OC(=O)CO)[C@H]2OC(=O)C1CC1c1ccccc1 (some centres not stated)
Return: NO

Enquiry: I'd appreciate the recorded outcome for CON1CCC[C@]2(C)[C@H]3CC[C@@H]4[C@H]5[C@@H](O)C(C)(C)CC[C@]5(CO)CC[C@@]4(C)[C@]3(C)CC[C@H]2C1(C)C from this test.
Return: NO

Enquiry: Test call for this compound, please: CCN1CCN(C(=O)[C@]23CC[C@@H](C)[C@H](C)[C@@H]2C2=CC[C@@H]4[C@@]5(C)CCC(=O)C(C)(C)[C@@H]5CC[C@@]4(C)[C@]2(C)CC3)CC1
Return: YES

Enquiry: Please state the recorded outcome for this compound: COc1ccc(-c2csc(NC(=O)CN3CCN(CCO)CC3)n2)cc1NS(=O)(=O)c1cccc2c(N(C)C)cccc12
Return: NO

Enquiry: Per the assay record, what outcome was assigned to COc1cc(/C=C2\C(=O)N(CCCCn3c4ccccc4c(=O)c4ccccc43)c3ccccc32)cc(OC)c1O ?
Return: NO

Enquiry: Answer briefly: the call reported for Cn1c(=O)c2c(nc(Nc3cc(=O)[nH]c(=O)[nH]3)n2Cc2ccccc2)n(C)c1=O in this assay.
Return: NO

Enquiry: Kindly provide the recorded test outcome for the following compound: Cc1ccc(-c2nc3nc(-c4ccccc4)nc(N4CCCNCC4)c3o2)cc1
Return: YES

Enquiry: I'd appreciate the recorded outcome for COc1ccc2c(O)c(/C=C3\N=Nc4nc(C)ccc43)oc2c1CC1CCNCC1 from this test.
Return: NO

Enquiry: How did this test come out for Fc1ccc(NC(c2ccc(F)cc2)C2CCN(CCCCc3ccccc3)CC2)cc1 (configuration not stated) ?
Return: NO

Enquiry: Just curious, what result did CC(C)(C)CC(N)=O get here?
Return: NO

Enquiry: Please indicate how the test categorized Cc1cccc(Cc2cnc(NC(=O)CCCOc3ccc(Cl)cc3)s2)c1 .
Return: NO

Enquiry: # lookup: test call for CC(C)=CCc1cc(O)c(O)c2oc3cc(O)cc(O)c3c(=O)c12
Return: NO

Enquiry: In this assay, the call recorded for O=C1N=c2ccccc2=C1c1sc(=S)n(C2CC(=O)N(c3ccc(Cl)cc3)C2=O)c1O (configuration not stated) was what?
Return: NO

Enquiry: What was the test verdict on CCN(CC)CCCN1C(=O)c2c(c(C)c3c(oc4cc(OC)ccc43)c2C)C1=O ?
Return: YES

Enquiry: Returns: the outcome recorded for CC1=CC=C(NC(=O)/C=C/c2ccccc2)CC1Nc1nccc(-c2cccnc2)n1 (configuration not stated) in this assay.
Return: NO

Enquiry: Can you look up the reported call for CN(C)CCCn1c2nc(=O)[nH]c(=O)c-2nc2cc(Cl)c(Cl)cc21 for me?
Return: NO

Enquiry: Write down the call the test reported for this compound. Item: COC(=O)c1nc(-c2ccc(C)cc2)oc1S(=O)(=O)c1ccc(Cl)cc1
Return: NO

Enquiry: Recorded call for O=C1/C(=C/c2ccc(F)c(F)c2)CN(C(=O)C(Cl)Cl)C/C1=C\c1ccc(F)c(F)c1 ?
Return: YES

Enquiry: Outcome logged for Cc1ccc(-c2nc3nc(-c4ccccc4)nc(N4CCN(S(=O)(=O)c5ccccc5)CC4)c3o2)cc1 in this assay:
Return: NO

Enquiry: Can you look up the reported call for CN(C)C1CCN(C(=O)c2ccc(NC(=O)Nc3ccc(-c4nc(N5CCOCC5)c5cccn5n4)cc3)cc2)CC1 for me?
Return: YES

Enquiry: Test call for this compound, please: Cc1ccc(Cl)cc1N1CCN(C(=O)[C@@H]2C[C@@H]2c2ccc(F)cc2)CC1
Return: NO

Enquiry: # fetch the recorded call for Cc1nc2sc(C(=O)Nc3cccc4ccccc34)c(N)c2cc1C(=O)/C=C/c1ccccc1 here
Return: YES

Measured values drawn from PubChem BioAssay (NCI) for this set.
